target: Bem1-1, P29366
Sequence (P29366 55-141): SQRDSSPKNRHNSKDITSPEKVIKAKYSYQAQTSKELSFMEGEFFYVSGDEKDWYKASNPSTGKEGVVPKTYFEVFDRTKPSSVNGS
method: SPOT array
measurement parameters: median of control spots 4282
quantity kind: SPOT intensity

>  <binder>
NGRRRPKFRVQLSGN

>  <quantity kind>
SPOT intensity

>  <measured number>
0

$$$$
>  <binder>
APKREAPKPPANTSP

>  <quantity kind>
SPOT intensity

>  <measured number>
0

$$$$
>  <binder>
AIPPPVPNRPGGTTN

>  <quantity kind>
SPOT intensity

>  <measured number>
1

$$$$
>  <binder>
SRSKPLPLTPNSKYN

>  <quantity kind>
SPOT intensity

>  <measured number>
0

$$$$
>  <binder>
NRARYLPQNPDIIAG

>  <quantity kind>
SPOT intensity

>  <measured number>
0

$$$$
>  <binder>
VQPTAAPATPPRHIS

>  <quantity kind>
SPOT intensity

>  <measured number>
2

$$$$
>  <binder>
PELAPKREAPKPPAN

>  <quantity kind>
SPOT intensity

>  <measured number>
0

$$$$
>  <binder>
VPKEPAPAPPPEPDM

>  <quantity kind>
SPOT intensity

>  <measured number>
0

$$$$
>  <binder>
PPLPRAPPVPPATFE

>  <quantity kind>
SPOT intensity

>  <measured number>
2

$$$$
>  <binder>
QRKSLRRPTLSKPAV

>  <quantity kind>
SPOT intensity

>  <measured number>
0

$$$$
>  <binder>
FTLPPPPPPPGLDEL

>  <quantity kind>
SPOT intensity

>  <measured number>
0

$$$$
>  <binder>
SLSRRRFSLPSMPNV

>  <quantity kind>
SPOT intensity

>  <measured number>
0

$$$$
>  <binder>
LKPPIGRPPKFPKSP

>  <quantity kind>
SPOT intensity

>  <measured number>
0

$$$$
>  <binder>
APPLPPTAPPPPSLP

>  <quantity kind>
SPOT intensity

>  <measured number>
0

$$$$
>  <binder>
RNNRPVPPPPPMRTT

>  <quantity kind>
SPOT intensity

>  <measured number>
5

$$$$
>  <binder>
KMSRSPPRPPSLKII

>  <quantity kind>
SPOT intensity

>  <measured number>
0

$$$$
>  <binder>
NSVPIMPTLPPRPYI

>  <quantity kind>
SPOT intensity

>  <measured number>
0

$$$$
>  <binder>
VNFRRIPTGPDSPPT

>  <quantity kind>
SPOT intensity

>  <measured number>
0

$$$$
>  <binder>
KLSRGRYGLPLSSRP

>  <quantity kind>
SPOT intensity

>  <measured number>
1

$$$$
>  <binder>
VFQFQMPTTPISTKM

>  <quantity kind>
SPOT intensity

>  <measured number>
0

$$$$
>  <binder>
RRARRQMGIPTISQV

>  <quantity kind>
SPOT intensity

>  <measured number>
3

$$$$
>  <binder>
APPPPPRRATPEKKP

>  <quantity kind>
SPOT intensity

>  <measured number>
0

$$$$
>  <binder>
LLGRKRPVMERVVDI

>  <quantity kind>
SPOT intensity

>  <measured number>
0

$$$$
>  <binder>
TTAPALPSLPPPPLL

>  <quantity kind>
SPOT intensity

>  <measured number>
0

$$$$
>  <binder>
RTRRRPPPPPIPSTQ

>  <quantity kind>
SPOT intensity

>  <measured number>
0

$$$$
>  <binder>
RPKRRAPPPVPKKPS

>  <quantity kind>
SPOT intensity

>  <measured number>
0

$$$$
>  <binder>
NFKRLLPRDPSEKSS

>  <quantity kind>
SPOT intensity

>  <measured number>
0

$$$$
>  <binder>
VTHRLRISIPGITGR

>  <quantity kind>
SPOT intensity

>  <measured number>
2

$$$$
>  <binder>
RKRAPTPPAPSRSEK

>  <quantity kind>
SPOT intensity

>  <measured number>
1

$$$$
>  <binder>
RLSRLLLSLPPESFT

>  <quantity kind>
SPOT intensity

>  <measured number>
0

$$$$
